# Lookup of reported Fold change to WT CD80 keyed by entry
target: T1, human CTLA4 expressed on CHO cells (human, UniProt P16410 36-223); test: flow cytometry, CHO cells stably expressing CTLA4; MFI relative to WT CD80 ECD-Fc (Abcam)
T1 construct: whole, on cells; Target on CHO cells stably expressing CTLA4; also called huCTLA4
T1 sequence (P16410 36-223): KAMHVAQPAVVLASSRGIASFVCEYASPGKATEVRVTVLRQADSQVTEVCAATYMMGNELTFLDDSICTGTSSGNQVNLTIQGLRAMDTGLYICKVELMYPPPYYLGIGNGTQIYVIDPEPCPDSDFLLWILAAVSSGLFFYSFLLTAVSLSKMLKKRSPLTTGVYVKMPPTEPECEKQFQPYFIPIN
Provide the reading as a plain figure in fold.

Below are worked cases with known answers.
Exercise: Quick one: Fold change to WT CD80 of CD80 E35D/M47V/N48K/V68M/L85Q IgV-Fc (Fc fusion, not shown: small tags and cut ends; a dimerising Fc or GST) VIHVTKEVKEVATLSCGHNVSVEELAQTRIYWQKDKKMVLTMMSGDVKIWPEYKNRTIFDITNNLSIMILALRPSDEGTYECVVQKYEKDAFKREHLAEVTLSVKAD ?
Key: 0.6

Exercise: And for CD80 M47V/N48K/K89N IgV-Fc (Fc fusion, not shown: small tags and cut ends; a dimerising Fc or GST) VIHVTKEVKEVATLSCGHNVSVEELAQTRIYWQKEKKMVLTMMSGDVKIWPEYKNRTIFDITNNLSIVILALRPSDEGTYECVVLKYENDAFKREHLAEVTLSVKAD ?
Key: 1

Exercise: And for CD80 E35D/M47V/V68M/L85Q/K89N IgV-Fc (Fc fusion, not shown: small tags and cut ends; a dimerising Fc or GST) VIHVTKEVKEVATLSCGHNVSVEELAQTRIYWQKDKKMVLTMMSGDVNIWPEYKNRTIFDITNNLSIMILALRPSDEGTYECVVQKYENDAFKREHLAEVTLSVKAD ?
Key: 0.7

Now, please, on to the next binder.
Exercise: Quick one: Fold change to WT CD80 of CD80 E35D/D46V/M47V/N48K/V68M IgV-Fc (Fc fusion, not shown: small tags and cut ends; a dimerising Fc or GST) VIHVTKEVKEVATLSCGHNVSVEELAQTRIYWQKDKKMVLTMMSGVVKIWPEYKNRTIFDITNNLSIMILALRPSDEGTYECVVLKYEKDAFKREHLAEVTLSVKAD ?
Key: 0.6
